Values were extracted from ChEMBL document CHEMBL1133259.

- Tested on: HL-60
- Assay Comment: Inhibitory concentration which reduces half the percentage of differentiated HL-60 cells induced by 1x 10 e-9 M Am80
- Type: functional, cell-based
- Test Context: Homo sapiens
Assay Metric: IC50
Entry format: amount then unit.

The compound listed as CN1c2cc3c(cc2N=C(c2ccc(C(=O)O)cc2)c2ccc4ccccc4c21)C(C)(C)CCC3(C)C shows IC50 equal to 17 nM
